All values here come from ChEMBL document CHEMBL1132750.

Target: Phosphodiesterase 4 (Homo sapiens, UniProt P27815+Q08499+Q07343+Q08493)
Assay: Inhibition of Phosphodiesterase 4 from human neutrophils
Type: protein assay
measurement_type: IC50 (µM)

mol_smiles | unit_abbreviation | IC50
COc1ccc2c(Cc3c(Cl)cncc3Cl)nncc2c1OC1Cc2ccccc2C1 | µM | 0.03

(1) COc1ccc2c(Cc3c(Cl)cncc3Cl)nncc2c1CCCCCc1ccccc1
(2) COc1ccc2c(Nc3c(Cl)cncc3Cl)nncc2c1OC1CCCC1
stdin: Lab notebook, comparison: 1 versus 2 , higher IC50 goes to which? Please respond with the label that marks your chosen entry.
stdout: 2
(2: 0.059 µM, 1: 0.03 µM)

----------
Target: Phosphodiesterase 4 (Homo sapiens, UniProt P27815+Q08499+Q07343+Q08493)
Experiment: Inhibition of rolipram binding to PDE4 from human neutrophils
Type: protein assay
measurement_type: Ki (µM)

mol_smiles | Ki [µM]
COc1ccc2c(Cc3c(Cl)cncc3Cl)nncc2c1/C=C/CCCc1ccccc1 | 0.164

(I) COc1ccc2c(Cc3c(Cl)cncc3Cl)nncc2c1C#CCCCc1ccccc1
(II) COc1ccc2c(Cc3c(Cl)cncc3Cl)n[n+]([O-])cc2c1OC1CCCC1
stdin: Lab notebook, comparison: I versus II , higher Ki goes to which? Please respond with the label that marks your chosen entry.
stdout: II
(II: 0.121 µM, I: 0.071 µM)
